System: Escherichia coli TOP10
Experiment: shrunken log2 fold change of peptide-encoding DNA abundance (4.5 h post-induction vs induction); higher = less antimicrobial activity (less host growth inhibition)
Conditions: time post-induction: 4.5 h; library: site-saturation at positions 5, 18, 19, 20
measure: shrunken log2 fold change
Output: the number by itself.

Example results:
sequence text: RRIRLRPPRLPRPRPRPAGVPRP
observed value: 0.103
--
sequence text: RRIRLRPPRLPRPRPRPENFPRP
observed value: 0.0173
--
sequence text: RRIRTRPPRLPRPRPRPLDMPRP
observed value: -0.247
--
sequence text: RRIRDRPPRLPRPRPRPFSCPRP
observed value: 0.171
--
sequence text: RRIRSRPPRLPRPRPRPKMQPRP
observed value: 0.055
--
sequence text: RRIRQRPPRLPRPRPRPNGNPRP
observed value: -0.405
--
sequence text: RRIRIRPPRLPRPRPRPTMSPRP
observed value: -0.124
--
sequence text: RRIRARPPRLPRPRPRPSKHPRP
observed value: -0.11

Supply measured shrunken log2 fold change of `RRIRKRPPRLPRPRPRPKIFPRP` in your reply. 0.0692

Give the reported shrunken log2 fold change for this sequence. `RRIRFRPPRLPRPRPRPWHYPRP` -0.146

Read the entry `RRIRTRPPRLPRPRPRPPSCPRP` and write its reported shrunken log2 fold change. 0.35

Given `RRIRPRPPRLPRPRPRPKTEPRP` , respond with its shrunken log2 fold change. -0.217

Give the reported shrunken log2 fold change for this sequence. `RRIRDRPPRLPRPRPRPRYAPRP` 0.215

---

Test system: Escherichia coli TOP10
Assay: shrunken log2 fold change of peptide-encoding DNA abundance (4.5 h post-induction vs induction); higher = less antimicrobial activity (less host growth inhibition)
Details: time post-induction: 4.5 h; library: site-saturation at positions 5, 18, 19, 20
// classify(record): look up shrunken log2 fold change in ranges low = under -0.03, medium = from -0.03 up to 0.1, high = 0.1 and over

// known answers, use as guide
sequence text: RRIRGRPPRLPRPRPRPMAWPRP
study system: Escherichia coli TOP10
assigned class: high

sequence text: RRIRFRPPRLPRPRPRPQTYPRP
study system: Escherichia coli TOP10
assigned class: low

sequence text: RRIRQRPPRLPRPRPRPEAGPRP
study system: Escherichia coli TOP10
assigned class: high

sequence text: RRIRLRPPRLPRPRPRPTCAPRP
study system: Escherichia coli TOP10
assigned class: high

sequence text: RRIRSRPPRLPRPRPRPWWIPRP
study system: Escherichia coli TOP10
assigned class: medium

sequence text: RRIRWRPPRLPRPRPRPNNAPRP
study system: Escherichia coli TOP10
assigned class: low

Exam item: assign `RRIRRRPPRLPRPRPRPQCDPRP` to the correct category. high

Classify this sequence: `RRIRCRPPRLPRPRPRPFKKPRP` low

# bin lookup: classify `RRIRDRPPRLPRPRPRPHCLPRP` by its shrunken log2 fold change high

Assign a category based on measured shrunken log2 fold change for `RRIRTRPPRLPRPRPRPMHFPRP` and give only the class name. low

Place this sequence in its band: `RRIRYRPPRLPRPRPRPPIDPRP` low

Hey, which category is `RRIRHRPPRLPRPRPRPDHMPRP` in, do you know? medium

Classify this sequence: `RRIRERPPRLPRPRPRPQRKPRP` medium

Please indicate the class for `RRIRKRPPRLPRPRPRPRYEPRP` based on its shrunken log2 fold change. high

Which bin should I file `RRIRYRPPRLPRPRPRPCWPPRP` under? medium

Form: Item = `RRIRHRPPRLPRPRPRPTIAPRP` ; Class = ? high

Please report the category associated with `RRIRKRPPRLPRPRPRPEGNPRP` , nothing else. high

Lab note: sort `RRIRTRPPRLPRPRPRPATFPRP` into the matching shrunken log2 fold change band. low

Band for `RRIRLRPPRLPRPRPRPWSWPRP` ? medium

# bin label for `RRIRWRPPRLPRPRPRPTLKPRP` medium

Which category does the recorded shrunken log2 fold change put `RRIRLRPPRLPRPRPRPIALPRP` in? low

Band for the recorded shrunken log2 fold change of `RRIRSRPPRLPRPRPRPKTPPRP` ? high

Class label required: `RRIRFRPPRLPRPRPRPRKLPRP` high

Hi there! Could you help me figure out the category for `RRIRLRPPRLPRPRPRPKHGPRP` please? low

Just checking, what class would you give `RRIRVRPPRLPRPRPRPMYFPRP` here? low

Returns: class label. Input: `RRIRKRPPRLPRPRPRPMFSPRP` low

Assign a bin to `RRIRCRPPRLPRPRPRPHEWPRP` medium

---

Tested on: Escherichia coli TOP10
Experiment: shrunken log2 fold change of peptide-encoding DNA abundance (4.5 h post-induction vs induction); higher = less antimicrobial activity (less host growth inhibition)
Details: time post-induction: 4.5 h; library: site-saturation at positions 5, 18, 19, 20
Respond with Satisfied for shrunken log2 fold change values of 0.2 and above, Not satisfied for values below.

sequence text: RRIRERPPRLPRPRPRPPGAPRP
assigned class: Satisfied

sequence text: RRIRGRPPRLPRPRPRPSPSPRP
assigned class: Satisfied

Reported shrunken log2 fold change at or above 0.2? `RRIRTRPPRLPRPRPRPVKPPRP` Not satisfied

---

Reported shrunken log2 fold change values follow for various sequences
System: Escherichia coli TOP10
Experiment: shrunken log2 fold change of peptide-encoding DNA abundance (4.5 h post-induction vs induction); higher = less antimicrobial activity (less host growth inhibition)
Details: time post-induction: 4.5 h; library: site-saturation at positions 5, 18, 19, 20
API note: the answer field is a bare number with no unit suffix.

sequence text: RRIRKRPPRLPRPRPRPTLGPRP
study system: Escherichia coli TOP10
observed value: 1.72
//
sequence text: RRIRWRPPRLPRPRPRPNPDPRP
study system: Escherichia coli TOP10
observed value: 0.167
//
sequence text: RRIRTRPPRLPRPRPRPIGAPRP
study system: Escherichia coli TOP10
observed value: 0.089
//
sequence text: RRIRVRPPRLPRPRPRPSWQPRP
study system: Escherichia coli TOP10
observed value: -0.251
//
sequence text: RRIRPRPPRLPRPRPRPPFIPRP
study system: Escherichia coli TOP10
observed value: -0.0606

Annotate the sequence `RRIRIRPPRLPRPRPRPPMHPRP` with its measured shrunken log2 fold change. -0.0688

Input `RRIRWRPPRLPRPRPRPGYPPRP` , output reported shrunken log2 fold change. -0.251

Please supply the value of reported shrunken log2 fold change for the item `RRIRLRPPRLPRPRPRPEGNPRP` -0.149

# return recorded shrunken log2 fold change for input `RRIRLRPPRLPRPRPRPHHIPRP` -0.343

Fill in shrunken log2 fold change for record `RRIRRRPPRLPRPRPRPNFCPRP` 0.171

Using the record for `RRIRLRPPRLPRPRPRPEPWPRP` , state its measured shrunken log2 fold change. 0.222

Give recorded shrunken log2 fold change. `RRIRGRPPRLPRPRPRPGYVPRP` -0.00987

---

Test system: Escherichia coli TOP10;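 further: peptides expressed intracellularly from a pBAD plasmid library in pooled LB shake-flask culture, induced with 0.3% L-arabinose, DNA abundance read by NGS, three biological replicates, DESeq2 with apeglm shrinkage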
Assay: shrunken log2 fold change of peptide-encoding DNA abundance (4.5 h post-induction vs induction); higher = less antimicrobial activity (less host growth inhibition)
Settings: time post-induction: 4.5 h; library: site-saturation at positions 5, 18, 19, 20
Consider the following sequences and their measured shrunken log2 fold change readings.
Provide a numeric answer; units are not to be included.

// fetch shrunken log2 fold change; item: `RRIRVRPPRLPRPRPRPFEIPRP` ; system: Escherichia coli TOP10 -0.486

Report value: shrunken log2 fold change, system: Escherichia coli TOP10, sequence: `RRIRLRPPRLPRPRPRPYSHPRP` -0.444

Please report the measured shrunken log2 fold change for `RRIRFRPPRLPRPRPRPDNEPRP` tested on Escherichia coli TOP10. -0.0688

Please tell me the measured shrunken log2 fold change for `RRIRMRPPRLPRPRPRPAPGPRP` ; system: Escherichia coli TOP10. 2.04

Report shrunken log2 fold change under test system Escherichia coli TOP10 for `RRIRARPPRLPRPRPRPSFRPRP` . -0.262

# return shrunken log2 fold change of `RRIRGRPPRLPRPRPRPFASPRP` (system: Escherichia coli TOP10) 0.215

Under Escherichia coli TOP10: report shrunken log2 fold change of `RRIRYRPPRLPRPRPRPNTMPRP` . -1.1

Please tell me the measured shrunken log2 fold change for `RRIRVRPPRLPRPRPRPLMWPRP` ; system: Escherichia coli TOP10. 0.157

Give Escherichia coli TOP10 shrunken log2 fold change for the following sequence: `RRIRRRPPRLPRPRPRPKSAPRP` 0.237

State, for Escherichia coli TOP10, measured shrunken log2 fold change of the sequence listed here: `RRIRFRPPRLPRPRPRPHYRPRP` -0.206

Recall the reported shrunken log2 fold change of `RRIRMRPPRLPRPRPRPADAPRP` when tested on Escherichia coli TOP10. 1.21

Origin of values: the supplement of paper PMC9112550
